Entry source: PubChem BioAssay (EPA / NIEHS)

ASSAY_PROTOCOL: APR_HepG2_MitoMass_24hr: Apredica 24-hour HepG2 Assay for Mitochondrial Mass (AID 2282912)
TEST_CONTEXT: high-content imaging, actives raise or lower the signal
Activity calls are given as the source filed them. How the source made its calls: active means hit-call score of the fitted dose curve at least 0.9, where 1 is the maximum; inactive means score below 0.9.
Assign a class; possible classes are active, inactive

Task: Test call, this compound: CC/C(=C(/CC)c1ccc(O)cc1)c1ccc(O)cc1
Result: active

Task: Called result for Cc1cc(F)ccc1-c1cc(N2CC[C@@H](O)[C@H]2CO)ncc1N(C)C(=O)C(C)(C)c1cc(C(F)(F)F)cc(C(F)(F)F)c1
Result: inactive

Task: For CC1(C)NC(=O)N(c2ccc([N+](=O)[O-])c(C(F)(F)F)c2)C1=O , which call appears in the assay record?
Result: inactive

Task: Lab log entry: C[C@]12CC[C@@H]3c4ccc(O)cc4CC[C@H]3[C@@H]1CC[C@H]2O — outcome as called in the assay?
Result: inactive

Task: Any idea what this test logged for CN(C[C@@H](CC[N+]12CCC(C3CCCCC3)(CC1)CC2)c1ccc(Cl)c(Cl)c1)C(=O)c1cc(C(F)(F)F)cc(C(F)(F)F)c1 ?
Result: active

Task: Please indicate how the test categorized NCc1cccc(C2CCN(C(=O)c3ccc(C#Cc4ccccc4F)o3)CC2)c1 .
Result: inactive

Task: Test call, this compound: O=c1c(-c2ccc(O)cc2)coc2cc(O)cc(O)c12
Result: inactive

Task: Check the results log: what was the call for c1ccc2ccccc2c1 ?
Result: inactive

Task: Record request — test call for Cc1ccc2oc(CN(Cc3ccccc3)C(=O)Nc3c(F)cc(F)cc3F)c(-c3ccc(Cl)cc3)c2c1
Result: inactive

Task: For OC12N=C(c3ccccc3)SC1Cc1cc(Cl)ccc12 (stereo unspecified) , which call appears in the assay record?
Result: inactive

Task: Test call for this compound, please: CCCCCCCCN(C)CCCCCCCC
Result: inactive
